Consider the following molecules and their measured pIC50 readings.
Biological target: UniProt:P08908
Sequence (P08908 whole entry): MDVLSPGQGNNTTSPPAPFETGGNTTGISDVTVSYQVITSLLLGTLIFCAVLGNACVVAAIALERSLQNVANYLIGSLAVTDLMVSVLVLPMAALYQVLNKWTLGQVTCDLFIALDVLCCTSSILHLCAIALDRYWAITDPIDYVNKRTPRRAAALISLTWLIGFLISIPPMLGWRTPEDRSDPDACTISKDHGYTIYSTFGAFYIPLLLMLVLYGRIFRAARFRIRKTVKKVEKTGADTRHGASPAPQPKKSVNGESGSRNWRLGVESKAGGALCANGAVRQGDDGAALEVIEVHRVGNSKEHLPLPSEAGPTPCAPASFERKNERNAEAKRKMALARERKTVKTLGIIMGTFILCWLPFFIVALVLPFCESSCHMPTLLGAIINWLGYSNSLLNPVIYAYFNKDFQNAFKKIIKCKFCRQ
Assay: Displacement of [3H]8-OH-DPAT from human 5HT1A receptor expressed in CHO cells by liquid scintillation counting
Assay type: cell-based
Answer as the number alone; pIC50 is minus log10 of concentration in mol/L.

For orientation, consider the following solved cases.
**Q:** State its pIC50 for this molecule: Cc1sc2nc(SCCCN3CCN(c4ccc5ccccc5n4)CC3)n(N)c(=O)c2c1C
**A:** 7.44

**Q:** State its pIC50 for this molecule: Nn1c(CCCCN2CCN(c3ccc4ccccc4n3)CC2)nc2c(c1=O)CCCC2
**A:** 8.85

**Q:** State its pIC50 for this molecule: Nn1c(SCCCN2CCN(c3ccc4ccccc4n3)CC2)nc2cc([N+](=O)[O-])ccc2c1=O
**A:** 8.89

# context switch: different molecule, same pIC50
**Q:** State its pIC50 for this molecule: Nn1c(CCCCN2CCN(c3ccc4ccccc4n3)CC2)nc2cc(Cl)ccc2c1=O
**A:** 7.74

###

Target: Sodium-dependent noradrenaline transporter (Homo sapiens, UniProt P23975)
Sequence (P23975 whole entry): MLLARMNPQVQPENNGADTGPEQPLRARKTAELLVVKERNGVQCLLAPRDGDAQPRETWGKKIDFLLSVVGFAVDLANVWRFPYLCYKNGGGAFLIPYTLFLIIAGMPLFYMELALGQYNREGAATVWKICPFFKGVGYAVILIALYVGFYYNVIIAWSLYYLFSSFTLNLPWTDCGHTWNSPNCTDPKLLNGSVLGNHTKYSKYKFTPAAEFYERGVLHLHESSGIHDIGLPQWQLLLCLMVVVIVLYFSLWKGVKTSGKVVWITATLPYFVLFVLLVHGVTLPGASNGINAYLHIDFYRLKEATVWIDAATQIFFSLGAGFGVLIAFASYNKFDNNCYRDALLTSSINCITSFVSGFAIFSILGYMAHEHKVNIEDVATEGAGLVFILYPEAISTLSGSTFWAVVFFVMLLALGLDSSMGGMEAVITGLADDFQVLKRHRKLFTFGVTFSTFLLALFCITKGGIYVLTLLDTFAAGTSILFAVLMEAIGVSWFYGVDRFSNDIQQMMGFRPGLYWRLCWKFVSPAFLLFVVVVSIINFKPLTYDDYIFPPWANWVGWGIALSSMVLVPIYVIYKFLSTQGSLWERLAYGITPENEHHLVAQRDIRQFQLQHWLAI
Assay: Displacement of [3H]nisoxetine from human recombinant NET
Measurement kind: IC50

**Q:** State its IC50 for this compound: Nn1c(CCCCN2CCN(c3ccc4ccccc4n3)CC2)nc2c(c1=O)CCCC2
**A:** > 1 µM

###

Molecular target: 5-hydroxytryptamine receptor 3A (Cavia porcellus) (UniProt O70212)
Sequence (whole entry): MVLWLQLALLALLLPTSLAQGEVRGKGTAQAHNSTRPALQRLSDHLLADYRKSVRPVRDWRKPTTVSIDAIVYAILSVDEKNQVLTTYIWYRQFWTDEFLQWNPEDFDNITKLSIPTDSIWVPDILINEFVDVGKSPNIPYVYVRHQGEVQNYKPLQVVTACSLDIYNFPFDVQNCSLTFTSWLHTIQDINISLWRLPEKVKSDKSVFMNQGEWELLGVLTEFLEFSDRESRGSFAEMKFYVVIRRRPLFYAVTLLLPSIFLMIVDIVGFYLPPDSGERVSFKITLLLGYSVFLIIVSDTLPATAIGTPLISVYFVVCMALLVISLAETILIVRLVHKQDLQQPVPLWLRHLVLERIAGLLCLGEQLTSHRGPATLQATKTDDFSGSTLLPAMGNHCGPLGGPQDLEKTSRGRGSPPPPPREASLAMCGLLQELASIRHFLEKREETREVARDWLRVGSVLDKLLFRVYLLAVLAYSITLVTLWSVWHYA
Experiment: Inhibition of 5HT3 receptor-mediated contraction of guinea pig ileum at 0.1 umol/L after 20 mins relative to control
Type: tissue-based
Consider the following compounds and their measured inhibition readings.
Use % as the unit, but write only the number.

For orientation, consider the following solved cases.
**Q:** Using 5-hydroxytryptamine receptor 3A (Cavia porcellus) (UniProt O70212) as the test system, report measured inhibition of Nn1c(CCCCN2CCN(c3ccc4ccccc4n3)CC2)nc2c(c1=O)CCCC2 .
**A:** 70.4

**Q:** Using 5-hydroxytryptamine receptor 3A (Cavia porcellus) (UniProt O70212) as the test system, report measured inhibition of CC(=O)N1CCc2c(sc3nc(SCCCN4CCN(c5ccc6ccccc6n5)CC4)n(N)c(=O)c23)C1 .
**A:** 79.9

**Q:** Using 5-hydroxytryptamine receptor 3A (Cavia porcellus) (UniProt O70212) as the test system, report measured inhibition of Nn1c(SCCCN2CCN(c3ccc4ccccc4n3)CC2)nc2c(c1=O)CCCC2 .
**A:** 80

# context switch: different compound, same inhibition
**Q:** Using 5-hydroxytryptamine receptor 3A (Cavia porcellus) (UniProt O70212) as the test system, report measured inhibition of Cc1cc(N2CCN(CCCCc3nc4c(c(=O)n3N)CCCC4)CC2)nc2ccccc12 .
**A:** 97.1
